Origin of the recorded values: patent US8618287B2

quantity: melting point (°C)

Here is how some compounds turned out for melting point.
Cn1c(=O)c(N2CCC(Oc3ccccc3C(F)(F)F)CC2)nn(-c2ccc(F)cc2)c1=O [Example 80]    111
Cn1nc(N2CCN(C(=O)/C=C/c3ccc([N+](=O)[O-])cc3)CC2)c(=O)n(C)c1=O [Example 50]    198
Cn1nc(N2CCN(Cc3ccccc3C(F)(F)F)CC2)c(=O)n(C)c1=O [Example 55]    92
Cn1nc(N2CCN(c3cccc(C(F)(F)F)c3)CC2)c(=O)n(C)c1=O    163
Cn1nc(N2CCN(C(=O)c3ccccc3C(F)(F)F)CC2)c(=O)[nH]c1=O [Example 2]    146

(1) Cn1nc(N2CCC(Oc3cc(F)ccc3Cl)CC2)c(=O)[nH]c1=O [Example 90]
(2) Cn1c(=O)c(N2CCC(Oc3ccccc3C(F)(F)F)CC2)nn(C2CCCCC2=O)c1=O (centres unmarked) [Example 86]
Task: Recorded melting point values differ for 1 and 2 ; which one is higher? Your answer should be the label attached to the chosen record.
Result: 1
(1: 172 °C, 2: 65 °C)
